pEC50 hGLPR1 for assorted binders
assayed_target: human GLP-1 receptor (hGLP1R) (human, UniProt P43220 24-463)
measurement_protocol: cell-based or functional assay
Numbered stars: 1 amine (or outer) side, 2 acyl side, 3 side chain; on linkers, the order of the positions; unused ones are H or OH. Square brackets hold non-standard residues; d marks the D form. Side chains are listed from the residue outwards. Ends that are not written are not given here. * marks the point of attachment. C20 diacid = O=C(O)CCCCCCCCCCCCCCCCCCC(=O)*; γGlu = O=C(O)[C@H](CCC(=O)[*:2])N[*:1]; AEEA = NCCOCCOCC(=O)O; Aib = CC(C)(N)C(=O)O

>  <binder>
H[Aib]EGTFTSDVSYLK([AEEA-AEEA-γGlu-C20 diacid])EEAAAQRFLEHLV-NH2 [SEQ ID NO: 61]

>  <pEC50 hGLPR1>
10.9 -log M

$$$$
>  <binder>
H[Aib]EGTFTSDVSYLKEEA[Aib]QQRFLEHLV-NH2 (not fully specified (residue 14)) [SEQ ID NO: 157]

>  <pEC50 hGLPR1>
11.6 -log M

$$$$
>  <binder>
H[Aib]EGTFTSDVSTLK([AEEA-AEEA-γGlu-C20 diacid])E[Aib]AA[Aib]QRFLEHLV-NH2 [SEQ ID NO: 32]

>  <pEC50 hGLPR1>
10.6 -log M

$$$$
>  <binder>
H[Aib]EGTFTSDWSYLK([AEEA-AEEA-γGlu-C20 diacid])EEA[Aib]LQRFLEHLV-NH2 [SEQ ID NO: 185]

>  <pEC50 hGLPR1>
11.2 -log M

$$$$

Attention now shifts to the item below.
I would be grateful if you could share the reported pEC50 hGLPR1 for H[Aib]EGTFTSDVSTLK([AEEA-AEEA-γGlu-C20 diacid])ELAA[Aib]QRFLEHLV-NH2 [SEQ ID NO: 79] .
10 -log M
